# Organism: Homo sapiens
# protocol description: Selectivity ratio of IC50 for human cathepsin S to IC50 for humanized rabbit cathepsin K
Consider the cut-off 40. If the recorded Ratio IC50 is strictly smaller, the label is Fulfilled; if not, the label is Not fulfilled.

Ratio IC50 under 40? Item: CC(C)(F)C[C@H](N[C@@H](c1ccc(-c2ccc(S(C)(=O)=O)cc2)cc1)C(F)(F)F)C(=O)NC1CCCN(S(=O)(=O)c2ccccn2)CC1=O (stereo in doubt; 10)
Not fulfilled

How about this molecule: COC(=O)NCC(=O)CNC(=O)[C@H](CC(C)(C)F)N[C@@H](c1ccc(-c2ccc(S(C)(=O)=O)cc2)cc1)C(F)(F)F
Fulfilled

How about this molecule: CC(C)(F)C[C@H](N[C@@H](c1ccc(-c2ccc(S(C)(=O)=O)cc2)cc1)C(F)(F)F)C(=O)NC1CN(S(C)(=O)=O)CC1=O (stereo partly specified)
Not fulfilled

How about this molecule: CC(C)(F)C[C@H](N[C@@H](c1ccc(-c2ccc(S(C)(=O)=O)cc2)cc1)C(F)(F)F)C(=O)NC1CN(C(N)=O)CC1=O (stereo partly specified)
Not fulfilled

How about this molecule: CC(C)(F)C[C@H](N[C@@H](c1ccc(-c2ccc(S(C)(=O)=O)cc2)cc1)C(F)(F)F)C(=O)NC1CN(C(=O)OC(C)(C)C)CC1=O (stereo partly specified)
Fulfilled

How about this molecule: CC(C)(F)C[C@H](N[C@@H](c1ccc(-c2ccc(S(C)(=O)=O)cc2)cc1)C(F)(F)F)C(=O)NC1CN(C(=O)c2ccccc2)CC1=O (stereo partly specified)
Fulfilled

====

So I've got a bunch of molecules here, and I need their clearance values.
# protocol description: Clearance in rat at 2 to 5 mg/kg, iv
# Format: ADME, organism-based
# Design: dose 2-5 mg/kg, route intravenous
# stated conditions: in vivo
Give the number; mL/min/kg is assumed, so skip it.

For CCOC(=O)N1CC(=O)C(NC(=O)[C@H](CC(C)(C)F)N[C@@H](c2ccc(-c3ccc(S(C)(=O)=O)cc3)cc2)C(F)(F)F)C1 (stereo not given in full) , what is its reported clearance?
53

How about this molecule: CC(C)(F)C[C@H](N[C@@H](c1ccc(-c2ccc(S(C)(=O)=O)cc2)cc1)C(F)(F)F)C(=O)NC1CCN(S(=O)(=O)c2ccccn2)CC1=O (stereo not given in full)
24

How about this molecule: COC(=O)NCC(=O)CNC(=O)[C@H](CC(C)(C)F)N[C@@H](c1ccc(-c2ccc(S(C)(=O)=O)cc2)cc1)C(F)(F)F
17

How about this molecule: CC(C)(F)C[C@H](N[C@@H](c1ccc(-c2ccc(S(C)(=O)=O)cc2)cc1)C(F)(F)F)C(=O)NC1CN(S(=O)(=O)c2ccccn2)CC1=O (stereo not given in full)
43

How about this molecule: CC(=O)N1CC(=O)C(NC(=O)[C@H](CC(C)(C)F)N[C@@H](c2ccc(-c3ccc(S(C)(=O)=O)cc3)cc2)C(F)(F)F)C1 (stereo not given in full)
67

====

# Species on record: Homo sapiens
# protocol description: Selectivity ratio of IC50 for human cathepsin S to IC50 for humanized rabbit cathepsin K
measurement name: Ratio IC50

For CC(C)(F)C[C@H](N[C@@H](c1ccc(-c2ccc(S(C)(=O)=O)cc2)cc1)C(F)(F)F)C(=O)NC1CN(C(=O)NS(=O)(=O)c2ccccc2)CC1=O (stereo partly drawn) , what is its reported Ratio IC50?
> 6

How about this compound: CC(C)(F)C[C@H](N[C@@H](c1ccc(-c2ccc(S(C)(=O)=O)cc2)cc1)C(F)(F)F)C(=O)NC1CN(C(=O)NCc2ccccc2)CC1=O (stereo partly drawn)
36

How about this compound: CCOC(=O)N1CCC(NC(=O)[C@H](CC(C)(C)F)N[C@@H](c2ccc(-c3ccc(S(C)(=O)=O)cc3)cc2)C(F)(F)F)C(=O)C1 (stereo partly drawn)
10

====

So I've got a bunch of compounds here, and I need their Ratio IC50 values.
# Species on record: Homo sapiens
# protocol description: Selectivity ratio of IC50 for human cathepsin B to IC50 for humanized rabbit cathepsin K
# output: bare number, no unit

For CC(C)(F)C[C@H](N[C@@H](c1ccc(-c2ccc(S(C)(=O)=O)cc2)cc1)C(F)(F)F)C(=O)NC1CN(S(C)(=O)=O)CC1=O (stereo partly drawn) , what is its reported Ratio IC50?
370

How about this compound: COC(=O)NCC(=O)CNC(=O)[C@H](CC(C)(C)F)N[C@@H](c1ccc(-c2ccc(S(C)(=O)=O)cc2)cc1)C(F)(F)F
148

How about this compound: CC(C)(F)C[C@H](N[C@@H](c1ccc(-c2ccc(S(C)(=O)=O)cc2)cc1)C(F)(F)F)C(=O)NC1CN(C(=O)NS(=O)(=O)c2ccccc2)CC1=O (stereo partly drawn)
9

====

# protocol description: Half life in rat at 2 to 5 mg/kg, iv
# Assay type: ADME, organism-based
# Set-up: dose 2-5 mg/kg, route intravenous
# stated conditions: in vivo
measurement name: half-life (h)
Give the number; h is assumed, so skip it.

For COC(=O)NCC(=O)CNC(=O)[C@H](CC(C)(C)F)N[C@@H](c1ccc(-c2ccc(S(C)(=O)=O)cc2)cc1)C(F)(F)F , what is its reported half-life?
1.1

How about this molecule: CCOC(=O)N1CC(=O)C(NC(=O)[C@H](CC(C)(C)F)N[C@@H](c2ccc(-c3ccc(S(C)(=O)=O)cc3)cc2)C(F)(F)F)C1 (some centres not stated)
2.1

How about this molecule: CC(C)(F)C[C@H](N[C@@H](c1ccc(-c2ccc(S(C)(=O)=O)cc2)cc1)C(F)(F)F)C(=O)NC1CCN(S(=O)(=O)c2ccccn2)CC1=O (some centres not stated)
0.6

How about this molecule: CC(C)(F)C[C@H](N[C@@H](c1ccc(-c2ccc(S(C)(=O)=O)cc2)cc1)C(F)(F)F)C(=O)NC1CN(S(=O)(=O)c2ccccn2)CC1=O (some centres not stated)
1.3

How about this molecule: CC(=O)N1CC(=O)C(NC(=O)[C@H](CC(C)(C)F)N[C@@H](c2ccc(-c3ccc(S(C)(=O)=O)cc3)cc2)C(F)(F)F)C1 (some centres not stated)
1.2

How about this molecule: CC(C)(F)C[C@H](N[C@@H](c1ccc(-c2ccc(S(C)(=O)=O)cc2)cc1)C(F)(F)F)C(=O)NC1(C#N)CC1 [ODANACATIB]
6

How about this molecule: COC(=O)N1CC(=O)C(NC(=O)[C@H](CC(C)(C)F)N[C@@H](c2ccc(-c3ccc(S(C)(=O)=O)cc3)cc2)C(F)(F)F)C1 (some centres not stated)
2.8

====

# Organism: Homo sapiens
# protocol description: Selectivity ratio of IC50 for human cathepsin B to IC50 for humanized rabbit cathepsin K
So I've got a bunch of compounds here, and I need their Ratio IC50 values.

For CC(=O)N1CC(=O)C(NC(=O)[C@H](CC(C)(C)F)N[C@@H](c2ccc(-c3ccc(S(C)(=O)=O)cc3)cc2)C(F)(F)F)C1 (stereo partly drawn) , what is its reported Ratio IC50?
> 1000

How about this compound: CC(C)(F)C[C@H](N[C@@H](c1ccc(-c2ccc(S(C)(=O)=O)cc2)cc1)C(F)(F)F)C(=O)NC1CCCN(S(=O)(=O)c2ccccn2)CC1=O (stereo in doubt; 9)
> 1000

How about this compound: CC(C)(F)C[C@H](N[C@@H](c1ccc(-c2ccc(S(C)(=O)=O)cc2)cc1)C(F)(F)F)C(=O)NC1CCCN(S(=O)(=O)c2ccccn2)CC1=O (stereo in doubt; 10)
> 1000

====

So I've got a bunch of compounds here, and I need their Ratio IC50 values.
# Organism: Homo sapiens
# protocol description: Selectivity ratio of IC50 for human cathepsin B to IC50 for humanized rabbit cathepsin K

For CC(C)(F)C[C@H](N[C@@H](c1ccc(-c2ccc(S(C)(=O)=O)cc2)cc1)C(F)(F)F)C(=O)NC1CCCN(S(=O)(=O)c2cccc[n+]2[O-])CC1=O (some centres undefined) , what is its reported Ratio IC50?
> 1000

How about this compound: CC(C)(F)C[C@H](N[C@@H](c1ccc(-c2ccc(S(C)(=O)=O)cc2)cc1)C(F)(F)F)C(=O)NC1CCCN(S(=O)(=O)c2ccccn2)CC1=O (stereo in doubt; 11)
> 1000

How about this compound: CC(C)(F)C[C@H](N[C@@H](c1ccc(-c2ccc(S(C)(=O)=O)cc2)cc1)C(F)(F)F)C(=O)NC1CCCN(S(C)(=O)=O)CC1=O (some centres undefined)
> 1000

How about this compound: CCOC(=O)N1CCCC(NC(=O)[C@H](CC(C)(C)F)N[C@@H](c2ccc(-c3ccc(S(C)(=O)=O)cc3)cc2)C(F)(F)F)C(=O)C1 (some centres undefined)
> 185
